# credit: paper PMC3445454

Measured IC50 of individual entries
study target: HLA-DR DRB1*10:01 (Homo sapiens, UniProt P01903+P01911, A100R/A169T/D57E/F55L/F60V/F69Y/F76Y/I96L/L162R/M171V/P40V/Q260P/Q39E/Q99R/R195Q/R42F/S149N/S66Y/T210M/V115G/V67A/W38E/Y59R/Y61H)
assay procedure: biochemical
Format: binding
Ends that are not written are not given here.

Bench note: what IC50 did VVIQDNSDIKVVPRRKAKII-NH2 [integrase(249-268)] show? 913 nM

Next item in the queue.
Bench note: what IC50 did EAVRHFPRPWLHGL-NH2 [vpr(29-42)] show? 311 nM
